Entry source: PubChem BioAssay

run.description: inhibitors of E-selectin induction by TNFa, primary screen, imaging, HUVEC, immunofluorescence, MLSMR starter and 10KST1 sets (AID 487);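 further: 100% = median nuclei count of all wells on the same plate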
condition.context: HUVEC TNFalpha-induced E-selectin immunofluorescence imaging, at 2 µM; measured here: cell number, toxicity
The following compounds are listed with their measured nuclei count values.
Give a bare numeral; the unit % is implied.

A selection of reference data follows.
# compound, unit.symbol, nuclei count
rows = [
    ("N#CCCNCC1(c2ccccc2)CCCC1", "%", 104),
    ("CCCSc1nc(N2CCOCC2)c2c(c1C#N)CCCC2", "%", 147),
    ("CC(C)[C@H](NC(=O)OC(C)(C)C)c1nnc(SCC(=O)Nc2ccc(Br)cc2)o1", "%", 130),
    ("Cc1cc(C)nc(SCc2csc(N)n2)n1", "%", 100),
    ("Cc1ccc(-n2ncc(C(=O)N3CCc4ccccc4C3)c2NC(=O)c2ccco2)cc1C", "%", 114),
    ("CC(=O)N1CCN=C1SCc1ccc(Br)cc1", "%", 98.6),
    ("O=C(COc1ccc(F)cc1)OCCN1CCOCC1", "%", 135),
    ("CCCOC(=O)CSc1nc(N)c(C#N)c(CC)c1C#N", "%", 113),
]

Recorded nuclei count for COc1ccc(C2CC(c3ccc(C)cc3)Nc3nc(N)nn32)cc1 (centres undefined) , please? 145

Dear colleague, I am looking for the recorded nuclei count of the following compound: CCOC(=O)c1c(C)n(C)c2ccc(O)c(CN3CCCCC3)c12 92.8

====

run.description: inhibitors of TNFa-induced NFkB p65 translocation, primary screen, imaging, HUVEC, MLSMR starter and 10KST1 sets (AID 438);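 further: compound added about 3h40 before a 20 min TNFalpha stimulation; signal is the nuclear over cytoplasmic p65 intensity ratio per well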
condition.context: HUVEC TNFa-induced p65 nuclear translocation; at 2 µM, stronger effect = higher value, 0% TNFa-plus-vehicle, 100% no-TNFa wells
reported.metric: inhibition (%)
Respond with the bare value in %.

Consider the following illustrative entries.
# compound, reported.metric, obs.value
measured = [
    ("COC(=O)c1ccc(NC2(C#N)C(=O)Nc3ccccc32)cc1 (configuration not stated)", "inhibition", 7.6),
    ("Cn1c(=N)c(S(=O)(=O)c2ccc(Cl)cc2)cc2c(=O)n3ccccc3nc21", "inhibition", 1.6),
    ("COc1ccc(Cn2nnnc2C(c2ccccn2)N2CCN(c3cc(Cl)ccc3C)CC2)cc1 (configuration not stated)", "inhibition", -8),
    ("CCCCOc1ccccc1C1C(C(N)=O)=C(C)Nc2nnnn21 (configuration not stated)", "inhibition", -4.7),
    ("CN=C(c1ccco1)n1c(=S)nc(-c2ccco2)n(C)c1=S", "inhibition", -5.2),
]

// returns reported inhibition for input Cc1nn(C(=O)c2ccoc2C)c(N)c1-c1ccccc1 -1.1

What does the data say about its inhibition? Entry: CC(C)CNC(=O)c1c(N)n(/N=C/c2cccnc2)c2nc3ccccc3nc12 -2.8

Reported inhibition, compound Cc1ccc(C2CC(c3cccs3)n3nc(N)nc3N2)cc1 (configuration not stated) : ____ -2

# query: inhibition of entry Cc1cc(NS(=O)(=O)c2ccc(NC(=O)COc3ccccc3C(C)C)cc2)no1 -12.7

Suppose we examine the compound Cc1cc(C)n2nc(SCc3cc(=O)n4ccccc4n3)nc2n1 ; what inhibition value has been reported? -16.3

Request the reported inhibition associated with Cc1ccc(C)c(NC(=O)c2ccc3c(c2)N(Cc2ccc(F)cc2)C(=O)CS3=O)c1 (configuration not stated) 6.2

Param item = COc1ccc(C)cc1NC(=O)CCC(=O)Nc1ccc2nc(N3CCN(C)CC3)cc(C)c2c1 ; retrieve measured inhibition. 1.5

Request the reported inhibition associated with CCCOC(=O)CSc1nc(N)c(C#N)c(CC)c1C#N 3.3

Recorded inhibition of COc1ccc(C(C)N2CC34C=CC(O3)C(C(=O)OCC(C)C)C4C2=O)cc1 (configuration not stated) , please. 9.1

Please look up its inhibition: O=C(NCCCN1CCOCC1)c1ccc(CS(=O)(=O)c2c(Cl)cccc2Cl)o1 0.9

Which inhibition value belongs to C/C(NC(=O)c1ccccc1F)=C1\C(=O)C[C@@H]2[C@H]1C2(C)C ? -13.5

Name the reported inhibition value associated with the compound C=CCn1c(SCC(=O)c2ccc(OC)cc2)nnc1C(C)NC(=O)c1cccs1 (configuration not stated) -0.6

Need inhibition of Cc1ccsc1C(C(=O)NC1CCCCC1)N(C(=O)Cc1cccs1)C1CC1 (configuration not stated) , thanks. 0

Entry OC1(C2(O)CC(c3ccccc3)ON2)CCCCC1 (configuration not stated) has what inhibition? 6.2

Bench note: what inhibition did O=C(Nc1ccc(N2CCCCC2)cc1)c1ccc(F)cc1 show? 0.3

Which inhibition is listed for COc1cccc(-c2cc(C(=O)N3CCc4ccccc4C3)no2)c1 ? -17

Param item = CC(=O)[C@H]1[C@@H]2C(=O)N(c3cccc(Cl)c3)C(=O)[C@@H]2[C@H]2c3ccccc3C=CN21 ; retrieve measured inhibition. 0
